# Tested on: K-562 leukemia
# ASSAY NAME: NCI-60 one-dose screen, 48 h (100 = growth as untreated, 0 = no growth, -100 = all killed)
# RECORDED CONDITIONS: 10 µM unless noted
About 83,000 compounds went through this panel and 20% of them were active in at least one assay; those are over-represented in the sample as a whole.
Assign growth to each entry below.
I only need the number, in %, no unit after it.

Q: I would be grateful if you could share the reported growth for `O=C(Nc1ccncc1)C(=O)c1cn(S(=O)(=O)c2cccc(Cl)c2F)c2ccccc12` .
A: 23.9

Q: Which growth reading was recorded for the molecule `COc1ccc(-c2cc(-c3cc4ccccc4oc3=O)n(-c3ccccc3)n2)cc1` ?
A: 81.8

Q: Form field: reported growth of `CN(C)CCCN1c2ccccc2CCc2ccccc21`
A: 94.9

Q: I'd like to know its growth. The molecule in question is CN1C(=O)C(C2=NNC(c3ccccc3C(=O)O)C2)C(=O)N(C)C1=O (stereo unspecified)
A: 94.1

Q: Which growth value is on record for `O=C(CC(=O)c1cccc(Cl)c1)c1cccc(Cl)c1` ?
A: 20.8

Q: Would you kindly share the measured growth for `Clc1nnc2c3ccccc3ccn12` ?
A: 102

Q: growth lookup needed for `CCn1c(Cc2ccccc2Nc2c(Cl)cccc2Cl)nnc1SCC(=O)Nc1cccc(OC)c1` , thanks.
A: 62.6

Q: What does the record list as growth for `O=C1c2cccc3cccc(c23)C(=O)N1CCCCCCCCCCN1C(=O)c2cccc3cccc(c23)C1=O` ?
A: 103

Q: Please look up its growth: `COc1ccc(-c2cc(-c3cn(-c4cccc(Cl)c4)nc3-c3ccc(OC)cc3)[nH]c(=S)n2)cc1`
A: 101

Q: Look up growth for this molecule: `COC(=O)c1ccc2c(c1)nc(-c1ccc(Cl)cc1)n2-c1cc(C(C)(C)C)[nH]n1`
A: 34.3

Q: Request the reported growth associated with `COc1ccc2c(c1)C1=NN(C(=O)CO)[C@H](c3ccc(OC(F)(F)F)cc3)[C@@H]1CC2`
A: 102

Q: Which growth is reported for this molecule? `O=C1C(Cl)=C(Nc2cccc3ccccc23)C(=O)c2ccccc21`
A: 26.6

Q: For the molecule `O=C1/C(=C/c2cc(F)cc(F)c2)Cc2cc(F)cc(F)c21` , what growth is on record?
A: 83.8

Q: Please report the recorded growth for `O=C(c1ccccc1)C(CCc1ccccn1)CCc1ccccn1` .
A: 96.2

Q: Form field: reported growth of CO[C@H](C(=O)[C@@H](O)[C@@H](C)O)[C@@H]1Cc2cc3cc(O[C@H]4C[C@@H](O[C@H]5C[C@@H](O)[C@H](O)C(C)O5)[C@H](O)C(C)O4)c(C)c(O)c3c(O)c2C(=O)[C@H]1O[C@H]1C[C@@H](O[C@H]2C[C@@H](O[C@H]3C[C@](C)(O)C(=O)C(C)O3)[C@@H](O)C(C)O2)[C@H](O)C(C)O1 (stereo partly specified)
A: 9.26

Q: Requested read-out: growth. Entry: `CCN(CC)c1cc(C)c(Cc2c(OC)ccc3ccccc23)cc1C`
A: 84.7

Q: Param item = `O=C1SCN(Cc2ccccc2)CN1Cc1ccccc1` ; retrieve measured growth.
A: 46.3

Q: What growth value was documented for this molecule, `Cn1c(-c2ccccc2)cc(=O)n1-c1ccccc1` ?
A: 110

Q: Name the recorded growth for CC(NC(=O)c1ccccc1)C(=O)Nc1ccccc1 (stereo unspecified) .
A: 91.4

Q: GET /values?readout=growth&item= `CCCCCCCCN(CCCCCCCC)C(=O)CCl`
A: 105

Q: Look up growth for this molecule: `COc1ccc(-n2c(COc3ccc(F)cc3)n[nH]c2=S)cc1`
A: 129

Q: What growth value was documented for this molecule, `O=C1Nc2ccc(Br)cc2/C1=N/c1nc(-c2ccccc2)cs1` ?
A: 82.4

Q: Recorded growth of CCN(C(=O)CCl)C(C)(C)C(SSSC(c1ccc(Cl)cc1)C(C)(C)N(CC)C(=O)CCl)c1ccc(Cl)cc1 (stereo unspecified) , please.
A: 0.579

Q: Any idea what its growth is? The molecule is `Clc1ccc(Cl)c(N=Cc2ccc3c(c2)OCO3)c1`
A: 103

Q: # get_value(readout='growth', item= `CN(C)c1ccc(/C=C\c2cccc[n+]2C)cc1` )
A: 21

Q: Recorded growth of `COc1ccc(N=C2CSc3nnc(-c4cc(F)c(Cl)cc4Cl)n3N2)cc1` , please.
A: -58.4
